# tested.target: Growth hormone secretagogue receptor type 1 (Homo sapiens, UniProt Q92847)
# Sequence (Q92847 whole entry): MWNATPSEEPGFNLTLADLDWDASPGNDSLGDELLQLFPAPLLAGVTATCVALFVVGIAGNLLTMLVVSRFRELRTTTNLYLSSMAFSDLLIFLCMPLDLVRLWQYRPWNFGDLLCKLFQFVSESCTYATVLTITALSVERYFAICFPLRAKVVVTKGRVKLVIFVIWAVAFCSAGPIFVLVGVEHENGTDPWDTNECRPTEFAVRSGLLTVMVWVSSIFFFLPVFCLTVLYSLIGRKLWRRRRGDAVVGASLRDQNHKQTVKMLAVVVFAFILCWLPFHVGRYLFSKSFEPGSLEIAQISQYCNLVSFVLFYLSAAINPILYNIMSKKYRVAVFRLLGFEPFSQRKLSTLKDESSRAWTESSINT
# procedure.details: Binding affinity to cloned human growth hormone secretagogue receptor type 1 in a competitive binding assay with [35S]MK-0677 as a radiolabeled ligand
pIC50: −log10 of the molar value. Residues, ends and D or L forms follow the SMILES beside them. *: point of attachment. Octanoyl = CCCCCCCC(=O)*
The following compounds are shown together with reported pIC50 values.
quantity.kind: pIC50

compound="CCCCCCCC(=O)OC[C@H](NC(=O)[C@H](CO)NC(C)=O)C(=O)N[C@@H](Cc1ccccc1)C(N)=O (Ac-Ser-Ser(Octanoyl)-Phe-NH2)" quantity_kind=pIC50 experimental_result="< 5.00"
compound="CCCCCCCC(=O)OC[C@H](NC(C)=O)C(=O)N[C@@H](Cc1ccccc1)C(=O)N[C@@H](CC(C)C)C(N)=O (Ac-Ser(Octanoyl)-Phe-Leu-NH2)" quantity_kind=pIC50 experimental_result="< 5.00"
compound="CCCCCCCC(=O)OC[C@H](NC(=O)[C@H](CO)NC(C)=O)C(=O)N[C@@H](Cc1ccccc1)C(=O)N[C@@H](CC(C)C)C(N)=O (Ac-SS(Octanoyl)FL-NH2)" quantity_kind=pIC50 experimental_result="< 5.70"
compound="CCCCCCCC(=O)OC[C@H](NC(=O)[C@H](CO)NC(=O)CN)C(N)=O (H-Gly-Ser-Ser(Octanoyl)-NH2)" quantity_kind=pIC50 experimental_result="< 5.00"

Reference source for all entries: ChEMBL document CHEMBL1133594
